# Test System: Pro-neuregulin-1, membrane-bound isoform (Homo sapiens)
# Protocol Notes: NRG1 binders on small-molecule microarrays, primary screen, psychiatric disease protein project, biochemical, small-molecule microarray, fluorescence 635/667 (AID 1075);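 also: score combines 667 nm spot fluorescence with signal to noise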
# Details: NRG1 binding, 635 nm fluorescence, higher = more signal

[
  {
    "Compound": "O=C1OCC=C[C@H]2OC34C=CCN(c5ccc6ccccc6c5)C(=O)[C@H]3N(CCCCCCO)C(=O)[C@@H]4[C@@H]12 (stereo partly drawn)",
    "composite z-score": 0.781
  },
  {
    "Compound": "COC(=O)c1c(CC[C@@H](CO)NC(=O)N[C@@H](C)Cn2cc(C3(O)CCCCC3)nn2)oc(C(C)=O)c1C(=O)OC",
    "composite z-score": 0.518
  },
  {
    "Compound": "COc1ccc([Si](C)(C)[C@H]2[C@H](CCn3cc([C@H](O)c4ccccc4)nn3)O[C@@]3(C(=O)N(Cc4cccc(N5CCOC5=O)c4)c4ccccc43)[C@@H]2C)cc1",
    "composite z-score": 0.209
  },
  {
    "Compound": "COCCOC(=O)N1C(=O)[C@@]2(c3cc(C#CC4=CCCCC4)ccc31)[C@H](C(=O)Nc1nc3ccccc3s1)[C@H]1C(=O)O[C@H](c3ccccc3)[C@H](c3ccccc3)N1[C@@H]2c1ccc(OCCO)cc1",
    "composite z-score": 0.342
  },
  {
    "Compound": "COc1ccc([C@H]2OC[C@@H]3CC4(CC=CC4)C(=O)N32)cc1",
    "composite z-score": -0.105
  },
  {
    "Compound": "COCC(=C=CC[C@@H](O)c1ccccc1OCCO)C[C@@H](O)c1cc(Cl)cc(Cl)c1O",
    "composite z-score": 0.935
  },
  {
    "Compound": "CC(C)(C)OC(=O)CC[C@@]1(C(=O)NCC(O)CO)N=C(c2ccc(OCCCO)cc2)O[C@@H]1c1ccccc1N=[N+]=[N-] (stereo partly drawn)",
    "composite z-score": 1.97
  },
  {
    "Compound": "O=C1c2ccccc2[C@](Cc2ccccc2I)(C(=O)NC2CC2)[C@H](c2ccc(CO)cc2)N1C1CCCCC1",
    "composite z-score": 1.62
  },
  {
    "Compound": "CC(C)(C)OC(=O)CC[C@@]1(C(=O)NCCN2CCOCC2)N=C(c2ccc(OCCCO)cc2)O[C@@H]1c1ccccc1N=[N+]=[N-]",
    "composite z-score": 1.56
  },
  {
    "Compound": "CCOc1cc(C(O)C2C=CC3C(=O)N(c4ccccc4)C(=O)C3N2Nc2ccccc2)ccc1O (stereo not drawn)",
    "composite z-score": 1.8
  },
  {
    "Compound": "CC(=O)N1Cc2ccccc2C[C@@]2(COC(c3ccc(OCCCO)cc3)=N2)C1=O",
    "composite z-score": 1.4
  },
  {
    "Compound": "CO[C@H]1O[C@H](CO)[C@@H](OC(=O)Nc2ccc(Br)cc2)[C@H](OC(=O)c2cc3ccccc3[nH]2)[C@H]1OC(=O)c1cc2ccccc2[nH]1",
    "composite z-score": 0.844
  },
  {
    "Compound": "COCC(=C=CC[C@H](O)c1ccccc1OCCO)C[C@H](O)c1cc(Cl)cc(Cl)c1O",
    "composite z-score": 1.43
  },
  {
    "Compound": "O=C1O[C@H](c2ccccc2)[C@H](c2ccccc2)N2[C@H]1[C@@H](C(=O)O)[C@]1(C(=O)Nc3ccc(C#CCCO)cc31)[C@H]2c1ccc(O)cc1",
    "composite z-score": 0.957
  },
  {
    "Compound": "CCCC=C(CCC)[C@@H](NS(=O)(=O)c1cccs1)c1ccc(C(=O)OC)cc1",
    "composite z-score": 1.94
  },
  {
    "Compound": "COC(=O)C(CC#Cc1ccc2c(c1)[C@]1(C(=O)N2)[C@H](c2ccc(O)cc2)N2[C@H](c3ccccc3)[C@H](c3ccccc3)OC(=O)[C@H]2[C@@H]1C(=O)Nc1nc2ccccc2s1)C(=O)OC",
    "composite z-score": 1.44
  },
  {
    "Compound": "O=C1OCCC/C=C\\[C@H]2OC34C=CCN(CCN5CCOCC5)C(=O)[C@H]3N(CCCO)C(=O)[C@@H]4C12 (stereo partly drawn)",
    "composite z-score": 1.47
  },
  {
    "Compound": "CN1C(=O)C2C=CC(C(O)C3CC=CCC3)N(NC(=O)OC(C)(C)C)C2C1=O (stereo not drawn)",
    "composite z-score": 1.64
  },
  {
    "Compound": "Cc1ccc(S[C@]2(C(=O)NC(C)C)CC(=O)N(Cc3ccccc3Cl)[C@@H]2c2ccc(CO)cc2I)cc1",
    "composite z-score": 1.85
  },
  {
    "Compound": "CCCCCC1=C2CNC(CCC)(C(=O)OC)C=C2C(C)C1=O (stereo not drawn)",
    "composite z-score": 0.92
  },
  {
    "Compound": "COC(=O)[C@@]1(Cc2ccc(OC)cc2)[C@H]2c3cc(C(=O)N(C)C)n(CCN4CNCC4=O)c3C[C@H]2CN1C(=O)c1ccccc1",
    "composite z-score": 1.51
  },
  {
    "Compound": "CN(C)CCCCCCNC(=O)[C@@H]1C[C@@H]2C(=O)N[C@@H](CCCCN)C(=O)N2[C@@H]1c1cccc(OCCO)c1",
    "composite z-score": 2.75
  },
  {
    "Compound": "NCCCCCNC(=O)[C@@H]1C[C@@H]2C(=O)NCC(=O)N2[C@@H]1c1ccc(O)cc1",
    "composite z-score": 0.817
  },
  {
    "Compound": "CCOC(=O)[C@H]1C/C=C/C[C@H](C(=O)OCC)C(=O)O[C@H]2[C@@H](OC)O[C@H](CO)[C@@H](OC(=O)Nc3ccc(C#N)cc3)[C@@H]2OC1=O",
    "composite z-score": 1.39
  },
  {
    "Compound": "C=CCOC(=O)[C@H]1[C@@H]2C(=O)O[C@@H](c3ccccc3)[C@@H](c3ccccc3)N2[C@@H](c2ccc(OCCOC(=O)[C@@H]3C[C@@H]4C(=O)N[C@@H](CCCC[N+](C)(C)C)C(=O)N4[C@@H]3c3ccc(O)cc3)cc2)[C@]12C(=O)Nc1ccccc12",
    "composite z-score": 0.206
  },
  {
    "Compound": "O=C(NCc1ccc(F)cc1)[C@H]1C[C@H]2C(=O)N[C@@H](Cc3ccccc3)C(=O)N2[C@H]1c1ccc(O)cc1",
    "composite z-score": -0.242
  },
  {
    "Compound": "CC1CC/C=C\\[C@H]2OC34C=CCN(C(C)(C)C)C(=O)[C@H]3N(CCCCCCO)C(=O)[C@@H]4C2C(=O)O1 (stereo partly drawn)",
    "composite z-score": 0.866
  },
  {
    "Compound": "C=C/C=C/[C@H]1C(=C)CN([C@@H](Cc2ccccc2)C(=O)OC)[C@@H]1[C@H](O)Cc1ccccc1",
    "composite z-score": -0.824
  }
]
